Biological target: furin (endogenous protease) in U20S cells (Homo sapiens, UniProt P09958)
Construct: the endogenous protease cleaves GFP; endogenous in cells; host or cells: U2OS cells transduced with a BacMam reporter
Sequence (P09958 108-794): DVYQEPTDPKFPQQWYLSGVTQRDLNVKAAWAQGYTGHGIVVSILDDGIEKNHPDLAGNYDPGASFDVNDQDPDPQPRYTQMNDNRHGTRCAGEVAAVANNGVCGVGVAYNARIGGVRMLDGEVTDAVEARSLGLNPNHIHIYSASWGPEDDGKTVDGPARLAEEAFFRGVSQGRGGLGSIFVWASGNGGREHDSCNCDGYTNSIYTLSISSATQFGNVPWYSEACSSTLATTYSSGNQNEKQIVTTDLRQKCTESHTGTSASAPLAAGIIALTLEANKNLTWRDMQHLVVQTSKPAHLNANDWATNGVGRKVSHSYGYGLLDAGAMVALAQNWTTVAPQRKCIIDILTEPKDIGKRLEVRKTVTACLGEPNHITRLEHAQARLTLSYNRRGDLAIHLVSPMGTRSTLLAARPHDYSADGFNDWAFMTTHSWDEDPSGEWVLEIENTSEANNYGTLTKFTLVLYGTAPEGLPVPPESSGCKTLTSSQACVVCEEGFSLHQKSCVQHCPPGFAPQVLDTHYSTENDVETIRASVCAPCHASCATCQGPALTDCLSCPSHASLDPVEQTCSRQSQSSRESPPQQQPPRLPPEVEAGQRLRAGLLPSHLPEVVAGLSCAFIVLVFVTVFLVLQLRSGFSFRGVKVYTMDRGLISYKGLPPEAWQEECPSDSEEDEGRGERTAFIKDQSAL
Experiment: Furin cell-based assay (image-based, Golgi-targeted GFP with BMP10 furin/PCSK cleavage site)
Details: 24-hour incubation, read-out: furin golgi cell pXC50 (converted)
Rule: measured EC50 below 10 nM gets MET; anything equal to or greater than 10 nM gets NOT MET.

{"compound": "CN1CCN(c2ccc(Oc3cc(CN4CCC(CC(=O)O)CC4)cc(-c4cc(Cl)cc(Cl)c4)n3)cn2)CC1", "class_name": "NOT MET"}
{"compound": "CNC(=O)NCC1CCN(Cc2cc(Oc3cnc(N4CCN(C5CC(C(=O)O)C5)CC4)nc3)nc(-c3cc(Cl)cc(Cl)c3)c2)CC1 (centres unmarked)", "class_name": "MET"}
{"compound": "CC(=O)NCC1CCN(Cc2cc(Oc3ccc(N4CCN(C)CC4)nc3)nc(-c3cc(Cl)cc(Cl)c3)c2)CC1", "class_name": "MET"}
{"compound": "CC(=O)NCC1CCN(Cc2cc(Oc3ccc(N4CCN(C(C)CCS(C)(=O)=O)CC4)nc3)nc(-c3cc(Cl)cc(Cl)c3)c2)CC1 (centres unmarked)", "class_name": "MET"}
{"compound": "Cc1nc(N2CCN(C)CC2)ccc1Oc1nc(-c2cc(Cl)cc(Cl)c2)cc(CN2CCC(CC(=O)O)CC2)c1F", "class_name": "NOT MET"}

I wonder whether COC(=O)NCC1CCN(Cc2cc(Oc3cnc(N4CCNCC4)nc3)nc(-c3cc(F)cc(Cl)c3)c2)CC1 has EC50 below 10 nM. Can you tell?
NOT MET

Thanks! And CC(=O)NCC1CCN(Cc2cc(Oc3cnc(N4CCN(CCC(=O)O)CC4)nc3)cc(-c3cc(Cl)cc(Cl)c3)c2)CC1 ?
NOT MET

Then this compound: CNC(=O)OCC1CCN(Cc2cc(Oc3cnc(N4CCN(CCO)CC4)nc3)nc(-c3cc(Cl)cc(Cl)c3)c2)CC1
MET

Also check CNC1CCN(c2ccc(Oc3cc(CN4CCC(CNC(C)=O)CC4)cc(-c4cc(Cl)cc(Cl)c4)n3)cn2)CC1
MET

Again, but for CC(=O)N[C@H]1[C@@H]2CCN(Cc3cc(Oc4cnc(N5CCN(CCC(=O)O)CC5)nc4)nc(-c4cc(Cl)cc(Cl)c4)c3)CC[C@@H]21
MET

Please do the same for O=C(O)CCN1CCN(c2ccc(Oc3cc(CN4CCC(CNC(=O)C5CC5)CC4)cc(-c4cc(Cl)cc(Cl)c4)n3)cn2)CC1 as well.
NOT MET

====

Target: furin (endogenous protease) in U20S cells (Homo sapiens, UniProt P09958)
Construct: the endogenous protease cleaves GFP; endogenous in cells; host or cells: U2OS cells transduced with a BacMam reporter
Assay: Furin cell-based assay (image-based, Golgi-targeted GFP with BMP10 furin/PCSK cleavage site)
Conditions: 24-hour incubation, read-out: furin golgi cell pXC50 (converted)
Structures can show the parent of a compound that is named as a salt.
readout: EC50

Please review the entries below; each comes with its answer.
{"compound": "COC(=O)NCC1CCN(Cc2cc(Oc3cnc(N4CCN(C(C)CCC(=O)O)CC4)nc3)nc(-c3cc(Cl)cc(Cl)c3)c2)CC1 (centres unmarked) [Example 222]", "measured_on": "furin (endogenous protease) in U20S cells (Homo sapiens, UniProt P09958)", "EC50": "25.1 nM"}
{"compound": "CN1C[C@@H]2C[C@H]1CN2c1ccc(Oc2cc(CN3CCC(CC(=O)O)CC3)cc(-c3cc(Cl)cc(Cl)c3)n2)nn1 [Example 357]", "measured_on": "furin (endogenous protease) in U20S cells (Homo sapiens, UniProt P09958)", "EC50": "100 nM"}
{"compound": "CC(=O)NCC1CCN(Cc2cc(Oc3cnc(N4CCN(CCCS(N)(=O)=O)CC4)nc3)nc(-c3cc(Cl)cc(Cl)c3)c2)CC1 [Example 253]", "measured_on": "furin (endogenous protease) in U20S cells (Homo sapiens, UniProt P09958)", "EC50": "2.51 nM"}
{"compound": "CN1CCN(c2cnc(Oc3cc(CN4CCC(CCO)CC4)cc(-c4cc(Cl)cc(Cl)c4)n3)cn2)CC1 [Example 350]", "measured_on": "furin (endogenous protease) in U20S cells (Homo sapiens, UniProt P09958)", "EC50": "1.26 nM"}
{"compound": "CC(=O)NCC1CCN(Cc2cc(Oc3cnc(N4CCN(CC(C)C(=O)O)CC4)nc3)nc(-c3cc(Cl)cc(Cl)c3)c2)CC1 (centres unmarked) [Example 283]", "measured_on": "furin (endogenous protease) in U20S cells (Homo sapiens, UniProt P09958)", "EC50": "25.1 nM"}
{"compound": "CN1CCN(c2ncc(Oc3cc(CN4CC5CC(CC(=O)O)CC5C4)cc(-c4cc(Cl)cc(Cl)c4)n3)cn2)CC1 (centres unmarked) [Example 129]", "measured_on": "furin (endogenous protease) in U20S cells (Homo sapiens, UniProt P09958)", "EC50": "79.4 nM"}

For FC1CCN(Cc2cc(Oc3cnc(N4CCN5CCC4C5)nc3)nc(-c3cc(Cl)cc(Cl)c3)c2)CC1 (centres unmarked) [Example 338] , what is its reported EC50?
12.6 nM

Please give the result for CC(=O)NCC1CCN(Cc2cc(Oc3cnc(N4CCN(CCS(N)(=O)=O)CC4)nc3)nc(-c3cc(Cl)cc(Cl)c3)c2)CC1 [Example 286] too.
7.94 nM

// query: COC(=O)NCC1CCN(Cc2cc(Oc3cnc(N4CCN(C)CC4)cn3)nc(-c3cc(Cl)cc(Cl)c3)c2)CC1 [Example 395]
31.6 nM

What do we get for COCCN1CCN(c2ncc(Oc3cc(CN4CCC(CNC(C)=O)CC4)cc(-c4cc(Cl)cc(Cl)c4)n3)cn2)CC1 [Example 245] ?
3.98 nM

Same question, CC(=O)NCC1CCN(Cc2cc(Oc3cnc(N4CCN(C[C@@H](C)O)CC4)nc3)nc(-c3cc(Cl)cc(Cl)c3)c2)CC1 [Example 302] this time
7.94 nM

Now the same for CNC(=O)CN1CCN(Cc2cc(Oc3ccc(N4CCNCC4)nc3)nc(-c3cc(Cl)cc(Cl)c3)c2)CC1 [Example 1, hydrochloride]
1.58 nM

Further, for O=C(O)CC1CCN(Cc2cc(Oc3ccc(N4CCNCC4)nc3)nc(-c3cc(Cl)cc(Cl)c3)c2)CC1 [Example 4, hydrochloride] ?
31.6 nM

Please answer likewise for O=C(O)CC1CCN(Cc2cc(Oc3cnc(N4CCN(C(CO)CO)CC4)nc3)nc(-c3cc(Cl)cc(Cl)c3)c2)CC1 [Example 23]
15.8 nM

====

Biological target: furin (endogenous protease) in U20S cells (Homo sapiens, UniProt P09958)
Construct: the endogenous protease cleaves GFP; endogenous in cells; host or cells: U2OS cells transduced with a BacMam reporter
Assay: Furin cell-based assay (image-based, Golgi-targeted GFP with BMP10 furin/PCSK cleavage site);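 note: Read-out is mean GFP fluorescence of Golgi puncta per cell by high-content imaging, retained when furin inhibited, over an eleven-point 0.00017–10 µM series, four-parameter fit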
Details: 24-hour incubation, read-out: furin golgi cell pXC50 (converted)
Counter-ions that a name gives are not always drawn.
readout: EC50 (nM)
Write down the numeric answer in nM and omit the unit.

{"compound": "C[C@H](CC1CCN(Cc2cc(Oc3ccc(N4CCN(C)CC4)nn3)nc(-c3cc(Cl)cc(Cl)c3)c2)CC1)C(=O)O", "EC50 / nM": 31.6}
{"compound": "CCN1CCCN(c2ccc(Oc3cc(CN4CCC(CC(=O)O)CC4)cc(-c4cc(Cl)cc(Cl)c4)n3)nn2)CC1", "EC50 / nM": 10}
{"compound": "CS(=O)(=O)CCCN1CCN(c2ncc(Oc3cc(CN4CCC(CC(=O)O)CC4)cc(-c4cc(Cl)cc(Cl)c4)n3)cn2)CC1", "EC50 / nM": 25.1}
{"compound": "CC(CCN1CCN(c2ncc(Oc3cc(CN4CCC(CC(=O)O)CC4)cc(-c4cc(Cl)cc(Cl)c4)n3)cn2)CC1)S(C)(=O)=O (stereo not shown)", "EC50 / nM": 15.8}
{"compound": "CNC(=O)NCC1CCN(Cc2cc(Oc3cnc(N4CCN(CCCO)CC4)nc3)nc(-c3cc(Cl)cc(Cl)c3)c2)CC1", "EC50 / nM": 2}

Name the recorded EC50 for COC(=O)NCC1CCN(Cc2cc(Oc3cnc(N4CCN(CCO)CC4)nc3)nc(-c3cc(Cl)cc(Cl)c3)c2)CC1 .
15.8

Entry CC(C)N1CCN(c2cnc(Oc3cc(CN4CCC(CC(=O)O)CC4)cc(-c4cc(Cl)cc(Cl)c4)n3)cn2)CC1 please
15.8

Thanks! And CC(=O)NCC1CCN(Cc2cc(Oc3ccc(N4CCN(CC(C)(C)C(=O)O)CC4)nc3)nc(-c3cc(Cl)cc(Cl)c3)c2)CC1 ?
31.6

Same again, this time with CN1C[C@@H]2C[C@H]1CN2c1ncc(Oc2cc(CN3CCC(CC(=O)O)CC3)cc(-c3cc(Cl)cc(Cl)c3)n2)cn1
10

Also O=C(O)CC1CCN(Cc2cc(Oc3cnc(N4CCN5CCC4C5)nc3)nc(-c3cc(Cl)cc(Cl)c3)c2)CC1 (stereo not shown) [Example 334, hydrochloride] , if possible.
20
